test: Metabolic stability in cynomolgus monkey liver microsomes assessed as half life at 1 uM measured upto 120 mins by UPLC/MS/MS analysis; type: ADME, Macaca fascicularis, Microsome
I'd appreciate it if you could supply half-life at 1 µM values for the items below.
Give the quantity in h, number only.

Prompt: Need half-life at 1 µM, item COc1cc(C(=O)O)cc2sc(N3CCN(Cc4c(-c5c(Cl)cccc5Cl)noc4C4CC4)C[C@H]3C)nc12
Response: 2.57

Prompt: Recorded half-life at 1 µM of COc1cc(C(=O)O)cc2sc(N3CCN(Cc4c(-c5c(Cl)cccc5Cl)noc4C4CC4)C[C@@H]3C)nc12 , please.
Response: 1.14

Prompt: Please report the recorded half-life at 1 µM for C[C@@H]1CN(Cc2c(-c3c(Cl)cccc3Cl)noc2C2CC2)CCN1c1nc2c(F)cc(C(=O)O)cc2s1 .
Response: 1.94

* * *

assay: AUC (0 to t) in Balb/c mouse at 1 mg/kg, iv measured after 5 mins by LC-MS/MS analysis; assay type: ADME, organism-based; parameters: time 5 min, dose 1 mg/kg, route iv; conditions: in vivo
assay-endpoint: AUC(0-t) at 5 min
Reply with a number, then the unit it belongs to.

Prompt: Which AUC(0-t) at 5 min value belongs to COc1cc(C(=O)O)cc2sc(N3CCN(Cc4c(-c5c(Cl)cccc5Cl)noc4C4CC4)C[C@H]3C)nc12 ?
Response: 1010 ng·h/mL

* * *

assay: Half life in Balb/c mouse at 5 mg/kg, po measured after 12 hrs by LC-MS/MS analysis; format: ADME, organism-based; conditions: in vivo
assay-endpoint: half-life

Prompt: // query half-life value for entry COc1cc(C(=O)O)cc2sc(N3CCN(Cc4c(-c5c(Cl)cccc5Cl)noc4C4CC4)C[C@H]3C)nc12
Response: 1.52 h

* * *

target: Bile acid receptor (Homo sapiens); assay: Agonist activity at GST-tagged human FXR-LBD in presence of luorescein-SRC2-2 coactivator peptide by TR-FRET assay
Sequence (Q96RI1 whole entry, the tested form may be a part): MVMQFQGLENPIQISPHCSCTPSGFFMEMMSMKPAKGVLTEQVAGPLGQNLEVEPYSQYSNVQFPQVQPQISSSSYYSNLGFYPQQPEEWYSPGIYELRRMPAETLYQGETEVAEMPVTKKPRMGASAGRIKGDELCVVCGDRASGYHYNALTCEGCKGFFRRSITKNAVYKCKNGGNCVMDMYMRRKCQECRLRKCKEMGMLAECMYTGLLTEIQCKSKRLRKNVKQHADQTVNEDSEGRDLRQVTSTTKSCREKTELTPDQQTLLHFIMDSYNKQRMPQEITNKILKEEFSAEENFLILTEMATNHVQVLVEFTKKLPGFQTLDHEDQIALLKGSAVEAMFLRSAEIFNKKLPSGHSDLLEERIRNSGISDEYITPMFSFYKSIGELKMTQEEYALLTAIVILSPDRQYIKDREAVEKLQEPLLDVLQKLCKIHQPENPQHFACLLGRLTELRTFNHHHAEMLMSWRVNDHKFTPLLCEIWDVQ
I'd appreciate it if you could supply EC50 values for the items below.
State the answer as a number, implicitly in nM.

Prompt: Find EC50 (Bile acid receptor (Homo sapiens)) for the entry COc1cc(C(=O)O)cc2sc(N3CCN(Cc4c(-c5c(Cl)cccc5Cl)noc4C4CC4)CC3C)nc12 (centres undefined)
Response: 8

Prompt: Form: Entry = COc1cc(C(=O)O)cc2sc(N3CCN(Cc4c(-c5c(Cl)cccc5Cl)noc4C(C)C)CC3(C)C)nc12 | System = Bile acid receptor (Homo sapiens) | EC50 = ____
Response: 37

Prompt: Form field - read-out: EC50; system: Bile acid receptor (Homo sapiens); submitted item: COc1cc(C(=O)O)cc2sc(N3CCN(Cc4c(-c5c(Cl)cccc5Cl)noc4C4CC4)C[C@H]3C)nc12
Response: 5

* * *

Assign half-life at 1 µM to each entry below.
assay: Metabolic stability in dog liver microsomes assessed as half life at 1 uM measured upto 120 mins by UPLC/MS/MS analysis; assay type: ADME, Canis lupus familiaris, Microsome

Prompt: If you can, please state the reported half-life at 1 µM value of COc1cc(C(=O)O)cc2sc(N3CCN(Cc4c(-c5c(Cl)cccc5Cl)noc4C4CC4)C[C@@H]3C)nc12 .
Response: 0.832 h

Prompt: Request the reported half-life at 1 µM associated with C[C@@H]1CN(Cc2c(-c3c(Cl)cccc3Cl)noc2C2CC2)CCN1c1nc2c(F)cc(C(=O)O)cc2s1
Response: 6.67 h

Prompt: Need half-life at 1 µM of COc1cc(C(=O)O)cc2sc(N3CCN(Cc4c(-c5c(Cl)cccc5Cl)noc4C4CC4)C[C@H]3C)nc12 , thanks.
Response: 3.95 h

* * *

I'd appreciate it if you could supply half-life at 1 µM values for the items below.
experiment: Metabolic stability in human liver microsomes assessed as half life at 1 uM measured upto 120 mins by UPLC/MS/MS analysis; format: ADME, Microsome
The answer is to be given in min; state only the numeric part.

Prompt: I am curious: what half-life at 1 µM value has been reported for COc1cc(C(=O)O)cc2sc(N3CCN(Cc4c(-c5c(Cl)cccc5Cl)noc4C4CC4)C[C@H]3C)nc12 ?
Response: 447

Prompt: What value of measured half-life at 1 µM is listed for COc1cc(C(=O)O)cc2sc(N3CCN(Cc4c(-c5c(Cl)cccc5Cl)noc4C4CC4)C[C@@H]3C)nc12 ?
Response: 307

Prompt: Can you share its half-life at 1 µM? I mean this compound: C[C@@H]1CN(Cc2c(-c3c(Cl)cccc3Cl)noc2C2CC2)CCN1c1nc2c(F)cc(C(=O)O)cc2s1
Response: 88.2

* * *

target: UniProt:Q96RI1; experiment: Agonist activity at GST-tagged human FXR-LBD in presence of luorescein-SRC2-2 coactivator peptide by TR-FRET assay
Please use 1 for EC50 under 20 nM and 0 for everything else, ties included.

Prompt: # TODO verify EC50 < 20 nM strictly for this molecule: CC(C)c1onc(-c2c(Cl)cccc2Cl)c1CN1CCN(c2cc3cc(C(=O)O)ccc3n2C)CC1
Response: 0

Prompt: Below 20 nM on EC50? Entry COc1cc(C(=O)O)cc2sc(N3CCN(Cc4c(-c5c(Cl)cccc5Cl)noc4C(C)C)CC3)nc12
Response: 0

Prompt: Does the reported EC50 of COc1cc(C(=O)O)cc2sc(N3CCC(Cc4c(-c5c(Cl)cccc5Cl)noc4C(C)C)CC3)nc12 stay below 20 nM?
Response: 0

Prompt: Hello, I'm reviewing records and need to know if EC50 of COc1cc(C(=O)O)cc2sc(N3CCN(Cc4c(-c5c(Cl)cccc5Cl)noc4C4CC4)C[C@@H]3C)nc12 is below 20 nM. Could you check?
Response: 1

Prompt: Confirm or reject: EC50 of C[C@@H]1CN(Cc2c(-c3c(Cl)cccc3Cl)noc2C2CC2)CCN1c1nc2c(F)cc(C(=O)O)cc2s1 lies strictly below 20 nM
Response: 1

Prompt: Regarding COc1cc(C(=O)O)cc2sc(C3CCN(Cc4c(-c5c(Cl)cccc5Cl)noc4C(C)C)CC3)nc12 , kindly confirm whether its EC50 is beneath 20 nM.
Response: 0

Prompt: Dear colleague, could you confirm whether EC50 of CCC1CN(Cc2c(-c3c(Cl)cccc3Cl)noc2C(C)C)CCN1c1nc2c(OC)cc(C(=O)O)cc2s1 (stereo not drawn) falls below 20 nM? Thanks.
Response: 0

Prompt: Input COc1cc(C(=O)O)cc2sc(C3CCN(Cc4c(-c5c(Cl)cccc5Cl)noc4C(C)C)C3)nc12 (stereo not drawn) ; condition: EC50 strictly below 20 nM. Does it hold?
Response: 0

* * *

test: Clearance in Balb/c mouse at 1 mg/kg, iv measured after 5 mins by LC-MS/MS analysis; type: ADME, organism-based; details: in vivo
assay-endpoint: clearance (mL/min/kg)
# number only, unit mL/min/kg dropped from output

Prompt: # query: clearance of entry COc1cc(C(=O)O)cc2sc(N3CCN(Cc4c(-c5c(Cl)cccc5Cl)noc4C4CC4)C[C@H]3C)nc12
Response: 16.5

* * *

assay: AUC (0 to t) in Sprague-Dawley rat at 3 mg/kg, iv measured after 5 mins by LC-MS/MS analysis; assay type: ADME, organism-based; parameters: time 5 min, dose 3 mg/kg, route iv; conditions: in vivo
assay-endpoint: AUC(0-t) at 5 min (ng·h/mL)
// units = ng·h/mL; emit number, no label

Prompt: What value of measured AUC(0-t) at 5 min is listed for COc1cc(C(=O)O)cc2sc(N3CCN(Cc4c(-c5c(Cl)cccc5Cl)noc4C4CC4)C[C@H]3C)nc12 ?
Response: 2610

* * *

assay: Tmax in Balb/c mouse at 5 mg/kg, po measured after 12 hrs by LC-MS/MS analysis; type: ADME, organism-based; details: in vivo
assay-endpoint: Tmax (min)
Just the number please, in min, no unit attached.

Prompt: Which Tmax is listed for COc1cc(C(=O)O)cc2sc(N3CCN(Cc4c(-c5c(Cl)cccc5Cl)noc4C4CC4)C[C@H]3C)nc12 ?
Response: 15

* * *

assay: Tmax in Beagle dog at 3 mg/kg, po measured after 12 hrs by LC-MS/MS analysis; assay type: ADME, organism-based, Canis lupus familiaris; conditions: in vivo
assay-endpoint: Tmax (h)
The figure you give is taken to be in h; do not add the unit.

Prompt: // lookup Tmax for COc1cc(C(=O)O)cc2sc(N3CCN(Cc4c(-c5c(Cl)cccc5Cl)noc4C4CC4)C[C@H]3C)nc12
Response: 1

* * *

experiment: Cmax in Sprague-Dawley rat at 9 mg/kg, po measured after 12 hrs by LC-MS/MS analysis; format: ADME, organism-based; parameters: time 12 hrs, dose 9 mg/kg, route po; conditions: in vivo
assay-endpoint: Cmax
Please make sure the unit comes right after the number.

Prompt: Which value of Cmax has been reported for COc1cc(C(=O)O)cc2sc(N3CCN(Cc4c(-c5c(Cl)cccc5Cl)noc4C4CC4)C[C@H]3C)nc12 in the records?
Response: 1950 ng/mL
